molecular target: sodium-proton exchanger of subtype 3 (NHE3) (Homo sapiens); construct: expressed in transfected cells; test: Recovery of intracellular pH (pHi) after acidification in LAP1 cells stably expressing NHE3 (BCECF fluorescence, FLIPR); assay type: cell-based; settings: LAP1 cells stably expressing NHE3; pH recovery after acidification; range 1 is % inhibition at 10 μM; read-out: Activity range (inhibitory effect on NHE3)
REPORTED_PROPERTY: IC50

Below: 10 compounds and their reported IC50.
Form: compound = "CC(=O)Nc1cccc(O[C@H]2c3ccccc3C[C@@H]2N2CCC[C@@H](N)C2)c1" ; IC50 = < 1 µM

Just so you know, measured IC50 for "Cc1nnc(C)n1-c1ccc(O[C@H]2c3cc(Cl)ccc3C[C@@H]2N2CC[C@H](F)C2)c(Cl)c1" came out at < 1 µM

Value of IC50 reported for the compound "CC1(C)NC(=O)N(c2ccc(O[C@H]3c4cc(Cl)cc(Cl)c4C[C@@H]3N3CC[C@@H](O)C3)cc2)C1=O" is < 1 µM

Quick note, IC50 for "Cc1nnc(C)n1-c1ccc(O[C@H]2c3cc(F)cc(F)c3C[C@@H]2N2CC[C@@H](O)C2)c(Cl)c1" landed at < 1 µM

Short answer for N[C@@H]1CCCN([C@H]2CCc3ccccc3[C@@H]2Oc2cccc(-n3cnnn3)c2)C1 (racemic) : IC50 was 1 to 10 µM

IC50 reading for CC(C)(C)N[C@H]1Cc2ccccc2[C@@H]1Oc1ccc(S(C)(=O)=O)cc1 (racemic) : 1 to 10 µM

For record CS(=O)(=O)c1ccc(O[C@@H]2c3ccccc3C[C@H]2NC2CCC2)cc1 (racemic) the listed IC50 is 1 to 10 µM

Looking up "Cc1nnc(C)n1-c1ccc(O[C@H]2c3cc(Cl)cc(Cl)c3C[C@@H]2N(C)CCN(C)C)c(F)c1" , I see its IC50 listed as < 1 µM

The reported IC50 of the compound "CS(=O)(=O)c1ccc(O[C@H]2c3cc(Cl)cc(Cl)c3C[C@@H]2N2CC[C@@H](N)C2)cc1" was < 1 µM

Input NS(=O)(=O)c1ccc(O[C@H]2c3cc(Cl)ccc3C[C@@H]2N2CCCC2)cc1 (racemic) . Output IC50: < 1 µM

Query compound follows.
For reference, reported IC50 for "CS(=O)(=O)c1ccc(O[C@H]2c3cc(Cl)cc(Cl)c3C[C@@H]2N2CCCN(CCF)CC2)cc1" stands at < 1 µM

----------
target: sodium-proton exchanger of subtype 3 (NHE3) (Homo sapiens); construct: expressed in transfected cells; assay: Recovery of intracellular pH (pHi) after acidification in LAP1 cells stably expressing NHE3 (BCECF fluorescence, FLIPR); assay type: cell-based; details: LAP1 cells stably expressing NHE3; pH recovery after acidification; range 1 is % inhibition at 10 μM; read-out: Activity range (inhibitory effect on NHE3)
pIC50: −log10 of the molar value.
REPORTED_PROPERTY: pIC50

Past entries and their recorded results:
// pIC50 value for CO[C@@H]1CCN(C2Cc3ccccc3C2Oc2cccc(NC(C)=O)c2)C1 (mixture of isomers) [Example 682] : 5.00 to 6.00

NS(=O)(=O)c1cc(Cl)c(O[C@H]2c3ccccc3C[C@@H]2N2CCCC2)c(Cl)c1 (racemic) [Example 402] yielded pIC50 of 5.00 to 6.00

response.value for CS(=O)(=O)c1ccc(O[C@H]2c3ccccc3C[C@@H]2N2CCCC2)cc1 (racemic) [Example 273] (field: pIC50) = > 6.00

Consider c1ccc2c(c1)C[C@@H](N1C[C@H]3CNC[C@H]3C1)[C@@H]2Oc1ccc(-n2ccnc2)cc1 (racemic) [Example 7] . Its measured pIC50 is 5.00 to 6.00

// pIC50 lookup, compound = CS(=O)(=O)c1ccc(O[C@H]2c3cc(Cl)cc(Cl)c3C[C@@H]2N2CC[C@H](F)C2)cc1 [Example 196] , result: > 6.00

Field pIC50 (entry Cc1ccc(O[C@@H]2c3ccccc3C[C@H]2N2C[C@H]3CNC[C@H]3C2)c(Br)c1 (racemic) [Example 10] ) reads 5.00 to 6.00

Others:
pIC50 for Cc1nnc(C)n1-c1ccc(O[C@H]2c3cc(Cl)cc(Cl)c3C[C@@H]2N2CC[C@@H](O)C2)c(F)c1F [Example 126] is > 6.00

pIC50 reading for Cc1cc(F)ccc1O[C@@H]1c2ccccc2C[C@H]1N1C[C@H]2CNC[C@H]2C1 (racemic) [Example 16] : 5.00 to 6.00

Briefly, pIC50 measured for CS(=O)(=O)c1ccc(O[C@H]2c3cc(Cl)cc(Cl)c3C[C@@H]2N2CC[C@@H](C#N)C2)cc1 [Example 105] : 5.00 to 6.00

Measured pIC50 of N[C@@H]1CCCN([C@H]2CCc3ccccc3[C@@H]2Oc2ccc(F)cc2-c2cc[nH]n2)C1 (racemic) [Example 120] : > 6.00

CS(=O)(=O)c1ccc(O[C@H]2c3cc(Cl)cc(Cl)c3C[C@@H]2N2CC[C@@H](CO)C2)cc1 [Example 227] yielded pIC50 of 5.00 to 6.00

----------
target: sodium-proton exchanger of subtype 3 (NHE3) (Homo sapiens); construct: expressed in transfected cells; assay: Recovery of intracellular pH (pHi) after acidification in LAP1 cells stably expressing NHE3 (BCECF fluorescence, FLIPR); assay type: cell-based; conditions: LAP1 cells stably expressing NHE3; pH recovery after acidification; range 1 is % inhibition at 10 μM; read-out: Activity range (inhibitory effect on NHE3)
REPORTED_PROPERTY: IC50

The examples below pair each entry with its known result.
Summary for this compound, "N[C@@H]1CCCN([C@H]2Cc3ccccc3[C@@H]2Oc2ccc(S(N)(=O)=O)cc2)C1" : IC50 is < 1000 nM

// field: IC50; key: NC1CCN([C@@H]2Cc3ccccc3[C@H]2Oc2ccc(S(N)(=O)=O)c(Cl)c2Cl)C1 (mixture of isomers) ; value = < 1000 nM

Item: "CS(=O)(=O)c1ccc(O[C@H]2c3cc(Cl)cc(Cl)c3C[C@@H]2N2CCNCC2)cc1" | IC50: < 1000 nM

Consider NS(=O)(=O)c1ccc(O[C@@H]2c3ccccc3C[C@H]2NC2CC2)c(F)c1 (racemic) . Its measured IC50 is 1000 to 10000 nM

New cases:
Input NS(=O)(=O)c1ccc(O[C@H]2c3ccccc3C[C@@H]2CN2CCCC2)c(F)c1 (racemic) . Output IC50: 1000 to 10000 nM

Recorded IC50 (compound "CN1CCN(c2ccc(Cl)c(O[C@H]3c4cc(Cl)cc(F)c4C[C@@H]3N3CC[C@@H](O)C3)c2)C1=O" ): < 1000 nM

----------
target: sodium-proton exchanger of subtype 3 (NHE3) (Homo sapiens, UniProt P48764); construct: expressed in transfected cells; test: Recovery of intracellular pH (pHi) after acidification in LAP1 cells stably expressing NHE3 (BCECF fluorescence, FLIPR); format: cell-based; settings: LAP1 cells stably expressing NHE3; pH recovery after acidification; range 1 is % inhibition at 10 μM; read-out: Activity range (inhibitory effect on NHE3)
Sequence (P48764 26-834, species assumed): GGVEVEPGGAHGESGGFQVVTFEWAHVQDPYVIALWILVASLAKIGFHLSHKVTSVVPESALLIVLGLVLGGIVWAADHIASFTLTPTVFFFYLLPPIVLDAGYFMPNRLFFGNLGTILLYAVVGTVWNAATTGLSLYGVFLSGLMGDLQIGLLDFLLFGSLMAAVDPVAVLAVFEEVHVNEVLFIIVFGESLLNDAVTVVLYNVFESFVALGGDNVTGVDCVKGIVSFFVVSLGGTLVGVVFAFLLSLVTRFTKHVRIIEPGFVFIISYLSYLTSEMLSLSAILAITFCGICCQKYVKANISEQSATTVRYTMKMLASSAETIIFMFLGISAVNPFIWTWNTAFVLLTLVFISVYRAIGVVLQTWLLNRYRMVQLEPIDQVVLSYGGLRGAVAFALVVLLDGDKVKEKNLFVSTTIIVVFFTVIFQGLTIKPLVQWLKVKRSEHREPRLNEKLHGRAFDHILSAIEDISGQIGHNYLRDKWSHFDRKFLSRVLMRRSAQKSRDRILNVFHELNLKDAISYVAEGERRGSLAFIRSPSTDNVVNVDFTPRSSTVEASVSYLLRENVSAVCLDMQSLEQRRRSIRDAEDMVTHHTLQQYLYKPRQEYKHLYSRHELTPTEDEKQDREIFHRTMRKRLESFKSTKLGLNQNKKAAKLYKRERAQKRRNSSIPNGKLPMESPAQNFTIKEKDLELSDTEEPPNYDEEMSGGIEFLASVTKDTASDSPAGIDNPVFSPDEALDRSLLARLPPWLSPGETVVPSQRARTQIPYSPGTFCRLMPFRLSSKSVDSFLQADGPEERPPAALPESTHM
pIC50: −log10 of the molar value.
REPORTED_PROPERTY: pIC50

# pIC50 of CO[C@@H]1CCN(C2Cc3ccccc3C2Oc2ccc(S(N)(=O)=O)c(Cl)c2Cl)C1 (mixture of isomers) [Example 359] = 5.00 to 6.00

The recorded pIC50 for entry O=c1ocnn1-c1ccc(O[C@H]2c3cc(Cl)cc(Cl)c3C[C@@H]2N2CC[C@@H](O)C2)cc1 [Example 735] equals 5.00 to 6.00

Query CCCc1ccc(NC(C)=O)cc1O[C@H]1c2ccccc2CC[C@@H]1N1CCC[C@@H](N)C1 (racemic) [Example 675] yields pIC50 of 5.00 to 6.00

# compound CC1(C)NC(=O)N(c2ccc(Cl)c(O[C@H]3c4cc(Cl)cc(Cl)c4C[C@@H]3N3CC[C@@H](O)C3)c2)C1=O [Example 431] ; its pIC50 = 5.00 to 6.00

----------
biological target: sodium-proton exchanger of subtype 3 (NHE3) (Homo sapiens, UniProt P48764); construct: expressed in transfected cells; assay: Recovery of intracellular pH (pHi) after acidification in LAP1 cells stably expressing NHE3 (BCECF fluorescence, FLIPR); assay type: cell-based; conditions: LAP1 cells stably expressing NHE3; pH recovery after acidification; range 1 is % inhibition at 10 μM; read-out: Activity range (inhibitory effect on NHE3)
pIC50: −log10 of the molar value.
pIC50 listing for selected molecules.

Before answering, review these 2 worked examples.
Noted pIC50 for "Cc1nnc(C(C)C)n1-c1ccc(O[C@H]2c3cc(Cl)cc(F)c3C[C@@H]2N2CC[C@@H](O)C2)cc1" , tested on sodium-proton exchanger of subtype 3 (NHE3) (Homo sapiens, UniProt P48764): 5.00 to 6.00

Log: sodium-proton exchanger of subtype 3 (NHE3) (Homo sapiens, UniProt P48764), molecule N#Cc1ccc(O[C@@H]2c3ccccc3C[C@H]2N2C[C@H]3CNC[C@H]3C2)c(Cl)c1 (racemic) , pIC50 = > 6.00

---
The value of pIC50 recorded for "CS(=O)(=O)c1ccc(O[C@H]2c3ccccc3C[C@@H]2N2CCC[C@@H](N)C2)cc1" when tested on sodium-proton exchanger of subtype 3 (NHE3) (Homo sapiens, UniProt P48764) reads > 6.00

// assay sodium-proton exchanger of subtype 3 (NHE3) (Homo sapiens, UniProt P48764), entry CN(C)S(=O)(=O)c1cc(Cl)c(O[C@H]2c3ccccc3C[C@@H]2N2CCCC2)c(Cl)c1 (racemic) , pIC50 value = 5.00 to 6.00

sodium-proton exchanger of subtype 3 (NHE3) (Homo sapiens, UniProt P48764) assay, molecule "N[C@@H]1CCCN([C@H]2Cc3c(Cl)cc(Cl)cc3[C@@H]2Oc2ccc(F)cc2-c2cc[nH]n2)C1" , recorded pIC50 = > 6.00

I looked up "Cc1nnc(C)n1-c1ccc(O[C@H]2c3cc(Cl)cc(Cl)c3C[C@@H]2N2CC[C@@H](C#N)C2)cc1" and its pIC50 for sodium-proton exchanger of subtype 3 (NHE3) (Homo sapiens, UniProt P48764) was > 6.00

Origin of the recorded values: patent US8822449B2
